Reported melting point values for a set of compounds

// worked examples, melting point included
CCc1c(-c2ccncc2)[nH]c(-c2ccncc2)c1C(C)=O	241 to 243 °C
COc1cc(N)c(Cl)cc1C(=O)NCCN1CCC(n2c(=O)[nH]c3ccccc32)CC1	230 °C
COc1ccc(-c2ncc(C(F)(F)F)cc2Cl)cc1	71 to 72 °C

What does the record list as melting point for c1ccc(-n2c3ccccc3c3cc4c(cc32)c2ccccc2n4-c2ccccc2)cc1 ?
306 °C

Again, but for CCc1cc(C)cc(CC)c1C1C(=O)CC(CC(C)S(=O)CC)CC1=O (stereo unspecified)
58 to 61 °C

# repeat for CN1CCN(CC(=O)O)CC1
158 to 160 °C

Same question, COC1(C)CN(c2ccc([N+](=O)[O-])cc2F)C1 this time
110 to 111 °C

For COc1ccc(OCC(O)CO)cc1 (stereo unspecified) then?
73 to 74 °C

Also check COc1ccc(C(=O)Nc2ccc(C)c(Cl)c2)cc1N
153 to 157 °C

Subsequent entry: Cn1cc(-c2cnc3c(c2)ncn3Cc2ccc3ncccc3c2)cn1
150 to 152 °C

Also Cc1cc(C(=O)NCC(N)=O)cc(-c2cccc3cc(Cc4cccc(C(F)(F)F)c4)sc23)n1 ?
183 to 184 °C

###

assay.metric: melting point

Illustrative cases are given below, each with its answer.
CCCC(=O)Nc1c(C)c(C)c2c(c1C)C(c1ccc(C(C)C)cc1)CO2 (stereo not given)	177 to 178 °C
CCCCCCCCCCCCCCOc1ccc(C(=O)Nc2cccc(CBr)c2)cc1	116 to 118 °C
CCOC(=O)c1c(-c2ccncc2)[nH]c(-c2ccncc2)c1C	206 to 208 °C
CCCCCCSC1c2cccc(O)c2C(=O)c2c(O)cccc21	49 to 50 °C
CCCn1nc2oc(=O)cc(C)c2c1C	108 to 110 °C
CCOC(=O)N1CCN(c2ncnc3[nH]ncc23)CC1	245 to 247 °C
O=C(O)C[C@@H](c1ccccc1)c1c[nH]c2cc(OCCCNc3ccccn3)ccc12	137 °C
CC(=O)OC1CCC2(C)C(=CCC3C2CCC2(C)C(n4cnc5ccccc54)=C(C=O)CC32)C1 (stereo not given)	227 to 230 °C

Fill in: melting point of O=[N+]([O-])c1ccc2sc3ccc(F)cc3c2c1 is ___
200 to 202 °C

Please give the result for CCc1cccc(-c2cnc3[nH]cc(C(=O)C(C)(C)C)c3n2)c1 too.
199 to 200 °C

###

assay.metric: melting point

COc1c(C)c(C)c2c(c1C)C(c1ccc(CCCCCCC(=O)O)cc1)C(C)(C)O2 (centres undefined)	88 to 89 °C
NCc1ccc(N2CCN(c3ccc(OCC(=O)O)cc3)C2=O)cc1	> 250 °C
OCc1ccc(O)c(CO)c1CNCCCCCCOCCc1ccco1	91 to 93 °C

Moving on to the next compound.
I am curious: what melting point value has been reported for COC(=O)CCc1ccc(C(c2cc(F)ccc2F)S(=O)(=O)c2ccc(Cl)cc2)nc1 (centres undefined) ?
121 to 123 °C

###

assay.metric: melting point

COC(=O)c1cc(N)nn1C	114 to 118 °C
CC(C)(C)OC(=O)NCc1ccccc1	55.5 to 56.5 °C
COc1cccc(CN2C(=O)CCc3cc(O)c(OC)cc32)c1	137 to 138 °C
N[C@H](C(=O)O)[C@H](S)c1ccccc1	107 to 108 °C
Cc1cc2c(c3c1NC(=O)CC3)OC(CO)C2 (stereo unspecified)	172 to 173 °C

Value lookup for melting point; key = CC(C)(C)OCC(=O)c1cnc(NC(=O)C(C)(C)C)cn1
138 to 140 °C

Param item: COc1cc([N+](=O)[O-])c(CC(=O)O)c(Cl)c1O
231 °C

Data origin, for the record: a melting point compilation (Tetko et al.; mined from patent text by program, amines drawn as free bases though some values may be those of a salt)
